EC50 for assorted compounds
- TARGET: human 5HT2c receptor (VSV Isoform) (Homo sapiens, UniProt P28335, I156V/I160V/N158S)
- Sequence (P28335 33-458 I156V/N158S/I160V limits assumed): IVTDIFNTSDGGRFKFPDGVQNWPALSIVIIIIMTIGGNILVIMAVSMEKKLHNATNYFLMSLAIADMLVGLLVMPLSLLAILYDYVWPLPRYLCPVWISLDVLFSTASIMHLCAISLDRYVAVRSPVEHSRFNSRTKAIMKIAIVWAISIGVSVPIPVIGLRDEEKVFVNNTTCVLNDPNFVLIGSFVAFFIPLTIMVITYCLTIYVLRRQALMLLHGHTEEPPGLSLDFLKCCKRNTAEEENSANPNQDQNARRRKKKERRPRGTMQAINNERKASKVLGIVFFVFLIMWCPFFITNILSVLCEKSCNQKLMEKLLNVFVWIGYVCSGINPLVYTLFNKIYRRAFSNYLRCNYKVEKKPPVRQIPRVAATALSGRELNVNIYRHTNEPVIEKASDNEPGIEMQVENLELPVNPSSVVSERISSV
- MEASUREMENT_PROTOCOL: cell-based
- RECORDED_CONDITIONS: 5-HT2c EC50 (hVSV, μM)

Example compounds with recorded EC50:
[
  {
    "COMPOUND": "COc1cc2c(cc1Cl)C(O)C1CNCC21 (stereo not drawn) [Example 55]",
    "REPORTED": "< 10 µM"
  },
  {
    "COMPOUND": "CC1c2ccc(O)cc2C2CNCC12 (stereo not drawn) [Example 2]",
    "REPORTED": "< 0.1 µM"
  },
  {
    "COMPOUND": "CC1c2ccc(OCc3ccccc3)cc2C2CNCC12 (single isomer, unassigned) [43, Enantiomer 2]",
    "REPORTED": "< 10 µM"
  },
  {
    "COMPOUND": "CC1c2c(ccc(Cl)c2F)C2CNCC12 (single isomer, unassigned) [42, Enantiomer 2]",
    "REPORTED": "< 0.1 µM"
  },
  {
    "COMPOUND": "CC1c2cc(Cl)c(OCc3ccc(F)cc3)cc2C2CNCC12 (single isomer, unassigned) [6, Enantiomer 2]",
    "REPORTED": "< 1 µM"
  }
]

For the compound shown here, CC1c2cc(Cl)cc(Cl)c2C2CNCC12 (stereo not drawn) [Example 28] , give the reported EC50.
< 0.1 µM

Same question for COc1c(Cl)cc2c(c1Cl)C1CNCC1C2C (single isomer, unassigned) [38, Enantiomer 1] please.
< 1 µM

Same question for COc1ccc2c(c1)C1CNCC1C2C (single isomer, unassigned) [1, Enantiomer 2] please.
< 1 µM

Same question for COc1cc2c(cc1C#N)C(C)C1CNCC21 (single isomer, unassigned) [33, Enantiomer 2] please.
< 1 µM
